Biological target: T1, human GIP receptor (human, UniProt P48546 22-466)
T1 sequence (looked up): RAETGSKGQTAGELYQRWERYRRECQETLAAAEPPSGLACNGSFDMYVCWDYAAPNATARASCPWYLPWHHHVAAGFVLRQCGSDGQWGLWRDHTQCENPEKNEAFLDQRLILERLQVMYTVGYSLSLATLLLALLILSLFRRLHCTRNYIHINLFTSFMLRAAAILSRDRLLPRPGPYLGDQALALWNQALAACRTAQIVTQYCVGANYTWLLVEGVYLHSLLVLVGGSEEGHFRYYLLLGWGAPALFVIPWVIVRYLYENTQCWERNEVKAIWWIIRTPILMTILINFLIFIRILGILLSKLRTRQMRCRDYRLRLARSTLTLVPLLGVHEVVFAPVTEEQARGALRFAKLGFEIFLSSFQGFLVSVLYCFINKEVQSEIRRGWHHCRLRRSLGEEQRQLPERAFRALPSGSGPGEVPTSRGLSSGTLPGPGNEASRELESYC
Assay: cell-based or functional assay
Ends that are not written are not given here. * marks the point of attachment. Stearoyl = CCCCCCCCCCCCCCCCCC(=O)*; Palmitoyl = CCCCCCCCCCCCCCCC(=O)*; Myristoyl = CCCCCCCCCCCCCC(=O)*; Lauroyl = CCCCCCCCCCCC(=O)*
For each of the binders below, state its cAMP agonism, Emax.
Please reply with the bare figure in % and do not write the unit itself.

What value of measured cAMP agonism, Emax is listed for EGTFISDYSIAMDK(Lauroyl)IHQQDFVNWLLAQK-NH2 [AT154 [hGIP(3-30)NH2-C12/16]] ?
0

Input EGTFISDYSIAMDK(Stearoyl)IRQQDFVNWLLAQR-NH2 (not fully specified) [AT162 [hGIP(3-30)NH2[H18R; K30R]-C18/16]]
44

Input Lauroyl-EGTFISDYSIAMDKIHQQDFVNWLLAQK-NH2 [AT101 [hGIP(3-30)NH2-C12/3]]
62

Input EGTKISDYSIAMDKIHQQDFVNWLLAQK (C16-diacid (1,16-hexadecanedioic acid) on Lys 6 (GIP numbering); C-terminal amide) [AT297 [hGIP(3-30)NH2[F6K]-C16diacid/6]]
19

Input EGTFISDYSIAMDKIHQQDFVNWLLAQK(Palmitoyl)-NH2 [AT106 [hGIP(3-30)NH2-C16/30]]
64

Input Palmitoyl-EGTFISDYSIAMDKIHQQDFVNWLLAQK-NH2 [AT104 [hGIP(3-30)NH2-C16/3]]
81

Input EGTFISDYSIAMDK(Myristoyl)IHQQDFVNWLLAQK-NH2 [AT111 [hGIP(3-30)NH2-C14/16]]
0

Input Lauroyl-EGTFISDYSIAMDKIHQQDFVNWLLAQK-NH2 [AT148 [hGIP(3-30)NH2-C12/3]]
43

Input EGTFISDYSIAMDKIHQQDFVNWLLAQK(Lauroyl)-NH2 [AT103 [hGIP(3-30)NH2-C12/30]]
7

Input Myristoyl-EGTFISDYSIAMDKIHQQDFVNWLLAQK-NH2 [AT110 [hGIP(3-30)NH2-C14/3]]
64

Input EGTFISDYSIAMDK(Lauroyl)IHQQDFVNWLLAQK-NH2 [AT102 [hGIP(3-30)NH2-C12/16]]
66

Input EGTFISDYSIAMDK(Stearoyl)IHQQDFVNWLLAQK-NH2 [AT114 [hGIP(3-30)NH2-C18/16]]
39
